# System: Candida albicans
# procedure text: Antifungal activity against fluconazole-resistant Candida albicans 901 assessed as inhibition of microbial growth after 24 hrs by broth microdilution method
# Format: functional
measured attribute: MIC
Please answer using the number first and the unit second.

Item Cc1cc(C)cc([Se]C(Cn2ccnc2)c2ccc(F)cc2F)c1 (stereo not drawn) has what recorded MIC?
4 µg/mL

Could you tell me which MIC is on file for COc1cccc([Se]C(Cn2ccnc2)c2ccc(F)cc2F)c1 (stereo not drawn) ?
4 µg/mL

# evaluate next
Could you tell me which MIC is on file for Cc1ccc(C)c([Se]C(Cn2ccnc2)c2ccc(F)cc2F)c1 (stereo not drawn) ?
4 µg/mL
